All values here come from patent US20120172295A1.

molecular target: glucagon receptor (UniProt P47871 26-477, limits assumed); assay: cell-based or functional assay
Sequence (P47871 26-477 limits assumed): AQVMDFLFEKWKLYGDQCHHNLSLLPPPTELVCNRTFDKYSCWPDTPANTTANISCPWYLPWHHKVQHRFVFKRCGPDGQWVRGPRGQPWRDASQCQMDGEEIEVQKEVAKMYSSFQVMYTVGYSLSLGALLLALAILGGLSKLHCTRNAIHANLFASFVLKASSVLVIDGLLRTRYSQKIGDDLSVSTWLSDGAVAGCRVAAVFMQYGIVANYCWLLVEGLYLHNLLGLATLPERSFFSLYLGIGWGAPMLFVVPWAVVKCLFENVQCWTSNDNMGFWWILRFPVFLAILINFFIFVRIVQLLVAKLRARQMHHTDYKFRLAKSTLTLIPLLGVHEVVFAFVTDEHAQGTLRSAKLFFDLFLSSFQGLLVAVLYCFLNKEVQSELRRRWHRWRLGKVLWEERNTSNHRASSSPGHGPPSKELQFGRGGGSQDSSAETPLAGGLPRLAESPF
Non-standard residues stand in square brackets, D forms with d. No end group written: not given here. *: point of attachment. Palmitoyl = CCCCCCCCCCCCCCCC(=O)*; Myristoyl = CCCCCCCCCCCCCC(=O)*; DMIA = not defined here; Aib = CC(C)(N)C(=O)O
QUANTITY NAME: % Activity of Glucagon

Query: Return the recorded % Activity of Glucagon value; entry: XSQGTFTSDKSKYLDERRAKDFVQWLMNT (DMIA at 1; Lys 10-C16 acyl; [E16/K20]; C-terminal amide) [DMIA1, K10(C16), [E16/K20]-Gluc Amide]
Response: 392%

Query: Assign % Activity of Glucagon to the following record: HXQGTFTSDKSKYLDERRAKDFVQWLMNT (d-Ser at 2; Lys 10-C16 acyl; C-terminal amide) [dS2, E16/K20, K10(C16) Gluc Amide]
Response: 44.7%

Query: Tell me its % Activity of Glucagon given [DMIA]SQGTFTSDK(Myristoyl)SKYLDERRAKDFVQWLMNT-NH2 (reading uncertain) [DMIA1, K10(C14), [E16/K20]-Gluc Amide] as the entry.
Response: 204%

Query: Fill in % Activity of Glucagon for record XSQGTFTSDKSKYLDERRAKDFVQWLMNT (DMIA at 1; Lys 10-C18 acyl; [E16/K20]; C-terminal amide) [DMIA1, K10(C18), [E16/K20]-Gluc Amide]
Response: 42.3%

Query: Identify % Activity of Glucagon associated with the binder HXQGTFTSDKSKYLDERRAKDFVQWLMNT (d-Ser at 2; Lys 10-C14 acyl; C-terminal amide) [dS2, E16/K20, K10(C14) Gluc Amide]
Response: 21.9%

Query: Identify measured % Activity of Glucagon associated with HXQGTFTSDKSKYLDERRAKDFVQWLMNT (d-Ser at 2; Lys 10-C18 acyl; C-terminal amide) [dS2, E16/K20, K10(C18) Gluc Amide]
Response: 196%

Query: Identify measured % Activity of Glucagon associated with H[Aib]QGTFTSDK(Palmitoyl)SKYLD[Aib]RRAQDFVQWLMNT-NH2 [AIB2, AIB16, K10(C16) Gluc Amide (SEQ ID NO: 611)]
Response: 170%
